The following molecules are listed with their measured IC50 values.
molecular target: Rac1 (Homo sapiens (Human)); experiment: Rac Activation AlphaScreen Assay (RacI AS); assay type: biochemical; conditions: Table 3, other compounds of Formula I; read-out: IC50

- chemSmiles: "Cc1ccc(-c2nnc3ccc(-c4cccc(NC(=O)c5cccc(Cl)c5)c4)nn23)s1"
  IC50: "1000 to 10000 nM"
- chemSmiles: "Cc1ccc(-c2nnc3ccc(-c4cccc(NC(=O)c5ccc(F)cc5)c4)nn23)s1"
  IC50: "≤ 1000 nM"

----------
The following compounds are listed with their measured IC50 values.
Biological target: Rac1 (Homo sapiens (Human))
Experiment: Rac Activation AlphaScreen Assay (RacI AS)
Format: biochemical
Conditions: Table 4, comparator compounds; read-out: IC50
Protocol: 2. Rac Activation AlphaScreen Assay (RacI AS) AlphaScreen® assays were performed in 96-well microplates in a final reaction volume of 60 μL. Recombinant His-Rac1, recombinant GST-PBD (PAK Binding Domain), donor and acceptor beads (PerkinElmer), and inhibitors were incubated in exchange buffer (20 mM Tris pH 7.5, 50 mM NaCl, 1 mM MgCl2, 1 mM EDTA, 500 nM GTPyS (guanosine 5′-[Y-thio]triphosphate)) at 37° C. Readings were performed on a Tecan M 1000 pro microplate reader after 1 hour. […]

- compound: "COc1ccc(C(=O)Nc2cccc(-c3ccc4nnc(-c5ccc(C)o5)n4n3)c2)cc1OC [Comparator 1, reference compound]"
  IC50: "1 to 10 µM"
- compound: "COc1cc(C(=O)Nc2cccc(-c3ccc4nnc(-c5ccc(C)o5)n4n3)c2)cc(OC)c1OC [Comparator 2, reference compound]"
  IC50: "> 10 µM"
- compound: "COc1ccc(OC)c(C(=O)Nc2cccc(-c3ccc4nnc(-c5ccc(C)o5)n4n3)c2)c1 [Comparator 3, reference compound]"
  IC50: "> 10 µM"

Data provenance: patent US20250346604A1
